# TESTED_TARGET: Sulfhydryl oxidase 1 (Homo sapiens) (UniProt O00391)
# Sequence (O00391 whole entry, looked up): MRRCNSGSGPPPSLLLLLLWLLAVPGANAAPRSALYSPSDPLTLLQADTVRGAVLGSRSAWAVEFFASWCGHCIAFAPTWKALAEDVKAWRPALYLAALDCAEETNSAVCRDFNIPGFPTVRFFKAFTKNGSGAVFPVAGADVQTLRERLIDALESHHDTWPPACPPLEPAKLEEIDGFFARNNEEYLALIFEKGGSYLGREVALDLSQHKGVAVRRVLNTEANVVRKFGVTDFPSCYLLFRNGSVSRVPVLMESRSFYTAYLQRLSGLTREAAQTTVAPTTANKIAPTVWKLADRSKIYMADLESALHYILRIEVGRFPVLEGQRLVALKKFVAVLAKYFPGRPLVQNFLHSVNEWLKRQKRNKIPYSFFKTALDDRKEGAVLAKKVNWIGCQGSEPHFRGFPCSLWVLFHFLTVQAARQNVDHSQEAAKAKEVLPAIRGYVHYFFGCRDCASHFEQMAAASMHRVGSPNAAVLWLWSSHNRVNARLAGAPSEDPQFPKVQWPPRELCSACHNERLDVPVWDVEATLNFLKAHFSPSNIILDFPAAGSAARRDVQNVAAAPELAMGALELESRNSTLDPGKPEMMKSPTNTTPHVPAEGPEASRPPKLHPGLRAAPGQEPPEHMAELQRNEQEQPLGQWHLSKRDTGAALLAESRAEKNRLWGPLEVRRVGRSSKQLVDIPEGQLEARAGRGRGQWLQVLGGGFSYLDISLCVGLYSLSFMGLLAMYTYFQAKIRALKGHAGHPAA
# ASSAY: QSOX1 binders by thermal stabilization, confirmation, QSOX1 inhibitor project, biophysical, protein thermal shift, single concentration (AID 1347422);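 note: dTm is compound Tm minus mean Tm of DMSO-only wells on that plate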
# CONDITION_PARAMETERS: recombinant hQSOX1 thermal shift, Sypro Orange, at 25 µM, stronger effect = higher value
Over roughly 1,000 compounds, “thermal shift dTm” has its median near 0.19; the highest 2% begin near 1.7. This excerpt belongs to a sample that is enriched for the highest values. The source made the active and inactive calls.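 Rule for the calls: active = mean rise in melting temperature of at least 1 degC over same-plate control wells; inactive = below that, where a call was filed.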
VALUE_TYPE: thermal shift dTm

compound=C/C=C/c1c(F)c(F)c(Oc2cccc(NC(C)=O)c2)c(F)c1F reported="0.63 °C"
compound=OCc1ccc(OCc2ccc(F)cc2)c(Br)c1 reported="0.58 °C"
compound=Cc1ccc(S(=O)(=O)Nc2cccc(NC(=O)c3cccs3)c2)cc1 reported="0.48 °C"
compound=O=S(=O)(NCCSC1CCCCC1)c1ccc(Cl)cc1 reported="0.11 °C"
compound=COc1ccc(Cl)cc1NC(=S)Nc1c(C)nn(Cc2c(F)cccc2Cl)c1C reported="0.81 °C"
compound=COc1ccc(C(=O)/C=C/c2cccc(OC)c2)cc1 reported="2.07 °C (active)"
compound=COc1cc(/C=N/O)cc(Br)c1OCc1ccccc1F reported="0.16 °C"
compound="CC1Oc2ccc(-c3csc(NC(=O)COc4ccc(Cl)cc4)n3)cc2NC1=O (stereo not drawn)" reported="-0.1 °C (inactive)"
compound=Cc1nonc1CC(=O)N1CCc2ccc(NC(=O)Cc3ccccc3F)cc2C1 reported="0.29 °C"
compound=C=CCSC1=N/C(=C\c2ccc(-c3cccc(Cl)c3)o2)C(=O)S1 reported="0.63 °C"
compound=O=C(NCCc1ccccc1)c1ccc(NC(=O)C2CC2)cc1 reported="0.04 °C"
compound=Cc1ccc(NC(=O)Nc2ccc(S(=O)(=O)Nc3ccccn3)cc2)cc1 reported="2.37 °C (active)"
compound=CC(C)N(Cc1nc(-c2ccc(Cl)cc2)no1)S(=O)(=O)c1ccc(F)cc1 reported="0.02 °C"
compound=CCOc1ccc(/C=C/C(=O)Nc2ccc(OC)cc2OC)cc1 reported="0.02 °C"
compound=Cc1cc(NC(=O)c2ccccn2)ccc1NC(=O)c1cc2ccccc2o1 reported="0.19 °C"
compound=CC(=O)Nc1cccc(NC(=O)COc2ccc(F)cc2Cl)c1 reported="0 °C (inactive)"
compound=COc1ccc(/C=C/C(=O)Nc2cccc(C(C)=O)c2)cc1 reported="1.18 °C (active)"
compound=O=C(Nc1ccc(Cl)cc1)Nc1ccc(S(=O)(=O)Nc2ncccn2)cc1 reported="1.03 °C (active)"
compound=COc1ccc(NC(=O)c2ccc(Cl)s2)cc1OC reported="0.19 °C"
compound=Cc1noc(NS(=O)(=O)c2ccc(NC(=O)Nc3ccc(Cl)cc3)cc2)c1C reported="0.7 °C"
compound=Nc1cccc(/C=C/C(=O)c2ccccc2)c1 reported="0.57 °C"
compound="Cc1ccc(/C=C/C(=O)NCC(C)NC(=O)/C=C/c2ccc(C)cc2)cc1 (stereo not drawn)" reported="0.45 °C"
compound=Cc1cc(C)nc(NS(=O)(=O)c2ccc(NC(=O)c3cccs3)cc2)n1 reported="2.92 °C (active)"
